The measured values listed here are drawn from patent US5801165A.

# assayed target: Rat thymus glucocorticoid receptor (Rattus norvegicus)
# Construct: The supernatant cytosol is used as the source of receptor; from tissue; host or cells: thymus of male adrenalectomised rats, 100,000 g supernatant cytosol
# experiment notes: Steroid binding to the rat thymus glucocorticoid receptor ([3H] dexamethasone displacement)
IC50 reference

molecule	assayed target	IC50
CCC[C@@H]1O[C@@H]2C[C@H]3[C@@H]4C[C@H](F)C5=CC(=O)C=C[C@]5(C)[C@@]4(F)[C@@H](O)C[C@]3(C)[C@]2(SC)O1	Rat thymus glucocorticoid receptor (Rattus norvegicus)	3.7 nM
CS[C@@]12OC(C)(C)O[C@@H]1C[C@H]1[C@@H]3CCC4=CC(=O)C=C[C@]4(C)[C@@]3(F)[C@@H](O)C[C@@]12C	Rat thymus glucocorticoid receptor (Rattus norvegicus)	1.6 nM
CCCC1O[C@@H]2C[C@H]3[C@@H]4CCC5=CC(=O)C=C[C@]5(C)[C@@]4(F)[C@@H](O)C[C@]3(C)[C@]2(Sc2ccccn2)O1 (stereo partly shown)	Rat thymus glucocorticoid receptor (Rattus norvegicus)	11.3 nM
CCC[C@@H]1O[C@@H]2C[C@H]3[C@@H]4C[C@H](F)C5=CC(=O)C=C[C@]5(C)[C@@]4(F)[C@@H](O)C[C@]3(C)[C@]2(SCF)O1	Rat thymus glucocorticoid receptor (Rattus norvegicus)	2.7 nM

###

# assayed target: Rat thymus glucocorticoid receptor (Rattus norvegicus)
# Construct: The supernatant cytosol is used as the source of receptor; from tissue; host or cells: thymus of male adrenalectomised rats, 100,000 g supernatant cytosol
# Sequence (P06536 1-795): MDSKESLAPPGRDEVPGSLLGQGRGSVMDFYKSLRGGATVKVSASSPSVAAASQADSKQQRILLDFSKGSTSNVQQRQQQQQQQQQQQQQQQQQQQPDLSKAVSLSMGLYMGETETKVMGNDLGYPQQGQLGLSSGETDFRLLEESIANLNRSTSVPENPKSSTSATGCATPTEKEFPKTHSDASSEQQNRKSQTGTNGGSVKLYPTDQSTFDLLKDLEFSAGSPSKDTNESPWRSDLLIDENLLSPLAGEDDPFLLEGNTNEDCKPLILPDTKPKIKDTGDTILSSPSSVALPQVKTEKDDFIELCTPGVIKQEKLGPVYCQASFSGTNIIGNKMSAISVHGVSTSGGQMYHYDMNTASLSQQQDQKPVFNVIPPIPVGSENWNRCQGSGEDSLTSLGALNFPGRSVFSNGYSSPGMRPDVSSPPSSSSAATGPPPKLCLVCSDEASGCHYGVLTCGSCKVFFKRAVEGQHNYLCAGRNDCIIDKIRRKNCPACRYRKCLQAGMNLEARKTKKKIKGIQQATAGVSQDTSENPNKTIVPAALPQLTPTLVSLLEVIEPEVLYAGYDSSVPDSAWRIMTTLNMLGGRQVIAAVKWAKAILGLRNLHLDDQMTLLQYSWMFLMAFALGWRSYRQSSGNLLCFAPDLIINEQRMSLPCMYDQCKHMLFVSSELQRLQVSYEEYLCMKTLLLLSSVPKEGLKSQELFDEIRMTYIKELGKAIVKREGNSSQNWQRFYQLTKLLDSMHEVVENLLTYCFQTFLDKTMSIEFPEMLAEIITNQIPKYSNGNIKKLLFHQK
# experiment notes: Steroid binding to the rat thymus glucocorticoid receptor ([3H] dexamethasone displacement)
# recorded conditions: read-out: IC50 (concentration reducing [3H] dexamethasone binding by 50%); 4 nM [3H] dexamethasone, 24 hours at 4° C., rat thymus cytosol
IC50 reference

compound	IC50, nM
CCC[C@H]1O[C@@H]2C[C@H]3[C@@H]4C[C@H](F)C5=CC(=O)C=C[C@]5(C)[C@@]4(F)[C@@H](O)C[C@]3(C)[C@]2(SCF)O1	2.5
CCC[C@@H]1O[C@@H]2C[C@H]3[C@@H]4CCC5=CC(=O)C=C[C@]5(C)[C@@]4(F)[C@@H](O)C[C@]3(C)[C@]2([S+](C)[O-])O1 (some centres unmarked)	6.6

###

# assayed target: Rat thymus glucocorticoid receptor (Rattus norvegicus, UniProt P06536)
# Construct: The supernatant cytosol is used as the source of receptor; from tissue; host or cells: thymus of male adrenalectomised rats, 100,000 g supernatant cytosol
# Sequence (P06536 1-795): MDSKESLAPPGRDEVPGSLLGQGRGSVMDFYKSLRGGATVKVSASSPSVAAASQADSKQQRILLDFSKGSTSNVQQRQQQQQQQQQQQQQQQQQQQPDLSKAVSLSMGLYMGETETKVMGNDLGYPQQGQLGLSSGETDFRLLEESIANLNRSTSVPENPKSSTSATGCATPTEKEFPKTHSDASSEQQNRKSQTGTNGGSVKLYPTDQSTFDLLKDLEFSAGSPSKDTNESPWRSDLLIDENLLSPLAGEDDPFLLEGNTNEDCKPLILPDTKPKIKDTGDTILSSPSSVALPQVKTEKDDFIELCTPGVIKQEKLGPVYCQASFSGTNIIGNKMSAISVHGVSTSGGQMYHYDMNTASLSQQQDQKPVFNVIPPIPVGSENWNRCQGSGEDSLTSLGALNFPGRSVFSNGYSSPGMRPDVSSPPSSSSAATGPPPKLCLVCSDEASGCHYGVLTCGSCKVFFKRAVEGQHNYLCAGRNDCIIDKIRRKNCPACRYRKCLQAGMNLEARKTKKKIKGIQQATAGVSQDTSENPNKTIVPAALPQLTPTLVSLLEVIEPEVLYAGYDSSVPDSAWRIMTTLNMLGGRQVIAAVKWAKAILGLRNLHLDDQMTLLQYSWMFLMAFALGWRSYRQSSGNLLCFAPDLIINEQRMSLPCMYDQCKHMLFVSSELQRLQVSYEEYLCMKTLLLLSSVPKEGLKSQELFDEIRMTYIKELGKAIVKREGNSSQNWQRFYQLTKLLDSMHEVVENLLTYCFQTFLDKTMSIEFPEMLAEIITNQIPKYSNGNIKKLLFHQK
# experiment notes: Steroid binding to the rat thymus glucocorticoid receptor ([3H] dexamethasone displacement)
# recorded conditions: 4 nM [3H] dexamethasone, 24 hours at 4° C., rat thymus cytosol; read-out: IC50 (concentration reducing [3H] dexamethasone binding by 50%)
log10 of IC50 reference
endpoint: log10 of IC50 (log10 of the value in nM)

molecule	assay value
CCCC1O[C@@H]2C[C@H]3[C@@H]4CCC5=CC(=O)C=C[C@]5(C)[C@@]4(F)[C@@H](O)C[C@]3(C)[C@]2(SC(C)C)O1 (stereo partly drawn)	0.74
CS[C@@]12OC(C)(C)O[C@@H]1C[C@H]1[C@@H]3C[C@H](F)C4=CC(=O)C=C[C@]4(C)[C@@]3(F)[C@@H](O)C[C@@]12C	0.51
CCC[C@@H]1O[C@@H]2C[C@H]3[C@@H]4CC(=O)C5=CC(=O)C=C[C@]5(C)[C@@]4(F)[C@@H](O)C[C@]3(C)[C@]2(SC)O1	0.38
CCC[C@@H]1O[C@@H]2C[C@H]3[C@@H]4C[C@H](F)C5=CC(=O)CC[C@]5(C)[C@@]4(F)[C@@H](O)C[C@]3(C)[C@]2(SCF)O1	0.48
CC1(C)O[C@@H]2C[C@H]3[C@@H]4CCC5=CC(=O)C=C[C@]5(C)[C@@]4(F)[C@@H](O)C[C@]3(C)[C@]2(Sc2ccccn2)O1	1.43
CCC[C@@H]1O[C@@H]2C[C@H]3[C@@H]4CCC5=CC(=O)C=C[C@]5(C)[C@@]4(F)[C@@H](O)C[C@]3(C)[C@]2(SCF)O1	0.88
